Measured pIC50 accompanies every entry in the list below.
molecular target: PSMA (Homo sapiens, UniProt Q04609)
Sequence (Q04609 whole entry): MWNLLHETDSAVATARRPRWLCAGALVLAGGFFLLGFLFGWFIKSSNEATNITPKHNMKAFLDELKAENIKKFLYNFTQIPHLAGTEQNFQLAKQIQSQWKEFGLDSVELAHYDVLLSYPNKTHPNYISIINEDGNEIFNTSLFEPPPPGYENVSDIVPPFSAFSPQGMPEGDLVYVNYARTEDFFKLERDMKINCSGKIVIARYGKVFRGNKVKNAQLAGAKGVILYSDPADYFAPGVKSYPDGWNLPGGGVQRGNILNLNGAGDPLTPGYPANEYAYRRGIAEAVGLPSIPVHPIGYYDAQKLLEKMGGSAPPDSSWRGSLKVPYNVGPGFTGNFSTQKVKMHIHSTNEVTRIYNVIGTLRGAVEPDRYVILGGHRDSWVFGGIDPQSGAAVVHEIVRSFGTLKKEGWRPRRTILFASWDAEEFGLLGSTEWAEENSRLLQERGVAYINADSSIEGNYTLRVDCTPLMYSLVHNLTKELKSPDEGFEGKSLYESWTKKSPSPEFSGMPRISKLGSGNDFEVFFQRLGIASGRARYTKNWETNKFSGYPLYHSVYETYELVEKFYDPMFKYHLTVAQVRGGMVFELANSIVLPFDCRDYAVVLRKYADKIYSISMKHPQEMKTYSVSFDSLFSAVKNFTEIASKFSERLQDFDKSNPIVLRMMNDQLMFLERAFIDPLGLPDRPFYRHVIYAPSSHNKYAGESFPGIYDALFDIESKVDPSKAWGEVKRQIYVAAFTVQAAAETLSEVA
pIC50: −log10 of the molar value.
Measure: pIC50

{"Compound": "O=C(O)CCc1ccc(O)c(CN(CCN(CC(=O)O)Cc2cc(CCC(=O)NCCCCCC(=O)NCCCC[C@H](NC(=O)N[C@@H](CCC(=O)O)C(=O)O)C(=O)O)ccc2O)CC(=O)O)c1 [PSMA-11]", "Assay target": "PSMA (Homo sapiens, UniProt Q04609)", "Recorded number": 6.15}
{"Compound": "NNc1ccc(C(=O)NCCCCCC(=O)N[C@@H](Cc2c[nH]c3ccccc23)C(=O)NCCCC[C@H](NC(=O)N[C@@H](CCC(=O)O)C(=O)O)C(=O)O)cn1 [PSMA-T3, Glu-CO-Lys-LTrp-6Ahx-HYNIC]", "Assay target": "PSMA (Homo sapiens, UniProt Q04609)", "Recorded number": 7.13}
